# system-name: human NK-3 receptor (Homo sapiens, UniProt P29371)
# Sequence (P29371 whole entry): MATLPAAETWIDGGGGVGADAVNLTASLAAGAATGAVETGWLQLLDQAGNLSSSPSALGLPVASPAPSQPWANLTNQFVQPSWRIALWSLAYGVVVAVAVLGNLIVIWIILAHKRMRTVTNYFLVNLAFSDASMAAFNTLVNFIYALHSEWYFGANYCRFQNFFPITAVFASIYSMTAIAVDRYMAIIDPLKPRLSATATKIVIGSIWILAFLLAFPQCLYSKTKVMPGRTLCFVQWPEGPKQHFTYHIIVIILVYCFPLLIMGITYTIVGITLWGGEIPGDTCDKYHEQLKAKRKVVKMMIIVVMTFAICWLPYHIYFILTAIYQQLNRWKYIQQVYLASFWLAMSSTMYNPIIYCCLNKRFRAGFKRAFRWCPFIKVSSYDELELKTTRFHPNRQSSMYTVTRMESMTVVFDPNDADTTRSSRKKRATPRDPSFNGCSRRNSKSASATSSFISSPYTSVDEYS
# experimental-protocol: Antagonistic activity on human NK-3 receptor, FLIPR calcium assay in stably transfected human NK-3R/HEK293 cells
# study-conditions: human NK-3R/HEK293 cells, agonist Neurokinin B, FLIPR
assay-metric: pIC50
Just so you know, pIC50 here is -log10 of the concentration in molar units; reply with that number alone.

Sample "Cc1nsc(-c2nc(N3CCCC3=O)c3n2CCN(C(=O)c2ccc(F)cc2)[C@@H]3C)n1" — what was its pIC50? 7.92
